system: MRSA ATCC 700699; experiment: microbe, parasite or virus in culture; details: ATCC 700699
Bridge positions count the residues as written; N and C are the ends. Square brackets hold non-standard residues; d marks the D form. Peptide text beside a SMILES is read from it. dNMeF = CN[C@H](Cc1ccccc1)C(=O)O
test_readout: MIC

**Q:** I have this molecule here, CC[C@@H](C)[C@@H](NC(=O)[C@@H](CCC(N)=O)NC(=O)[C@H](CO)NC(=O)[C@@H](NC(=O)[C@@H](Cc1ccccc1)NC)[C@@H](C)CC)C(=O)N[C@H](C(=O)N[C@@H](CO)C(=O)N[C@H]1C(=O)N[C@@H](CCCNC(=N)N)C(=O)N[C@@H](CC(C)C)C(=O)N[C@@H]([C@@H](C)CC)C(=O)O[C@H]1C)[C@@H](C)CC [Compound 27, Arg9-Leu10-teixobactin] (H-[dNMeF]IS[dQ][dI]IS[dT]RLI; ester 8-C) , and I need its recorded MIC.
**A:** 0.5 µg/mL

**Q:** Same again, this time with CC[C@@H](C)[C@@H](NC(=O)[C@@H](CCC(N)=O)NC(=O)[C@H](CCCNC(=N)N)NC(=O)[C@@H](NC(=O)[C@@H](Cc1ccccc1)NC)[C@@H](C)CC)C(=O)N[C@H](C(=O)N[C@@H](CO)C(=O)N[C@H]1C(=O)N[C@@H](C)C(=O)N[C@@H](CC(C)C)C(=O)N[C@@H]([C@@H](C)CC)C(=O)O[C@H]1C)[C@@H](C)CC [Compound 25, Arg3-Leu10-teixobactin] (H-[dNMeF]IR[dQ][dI]IS[dT]ALI; ester 8-C)
**A:** 0.5 µg/mL

**Q:** Same again, this time with CC[C@@H](C)[C@@H](NC(=O)[C@@H](CCCNC(=N)N)NC(=O)[C@H](CO)NC(=O)[C@@H](NC(=O)[C@@H](Cc1ccccc1)NC)[C@@H](C)CC)C(=O)N[C@H](C(=O)N[C@@H](CO)C(=O)N[C@H]1C(=O)N[C@@H](CCCNC(=N)N)C(=O)N[C@@H](CC(C)C)C(=O)N[C@@H]([C@@H](C)CC)C(=O)O[C@H]1C)[C@@H](C)CC [Compound 30, D-Arg4-Arg9-Leu10-teixobactin] (H-[dNMeF]IS[dR][dI]IS[dT]RLI; ester 8-C)
**A:** 1 µg/mL
